system: WPMY1-ACTB-RAB5A; test: phenotypically active (imaging signature differs from DMSO and reproducible) at any of 0.3-9 uM (binary (1 = active, 0 = inactive)); higher = active; settings: treatment time: 24 h
Answer with one of the outcomes active, inactive

COMPOUND	EXPERIMENTAL TARGET	CLASS ASSIGNMENT
O=C(NCCN1CCC(n2c(=O)[nH]c3ccccc32)CC1)c1cc2cc(F)ccc2[nH]1	WPMY1-ACTB-RAB5A	active

[in] What was the test verdict on C[C@]1(O)C[C@@H](c2nc(-c3ccc4ccc(-c5ccccc5)nc4c3)c3c(N)nccn32)C1 [linsitinib] ?
[out] active

[in] Repeat for the following compound: "N#Cc1c(NC(=O)c2cccc3ccccc23)sc2c1CCCC2"
[out] active

[in] Would you mind doing "CCn1c(=O)n([C@H]2CCCN(c3nccc(-c4cc5ccccc5o4)n3)C2)c2ccccc21" as well?
[out] inactive

[in] Now the same for CNCCCN1c2ccccc2CCc2ccccc21 [desipramine]
[out] active

* * *

Below, each entry is listed with its recorded phenotypically active.
system: HepG2-ACTB-RAB5A; experiment: phenotypically active (imaging signature differs from DMSO and reproducible) at any of 0.3-9 uM (binary (1 = active, 0 = inactive)); higher = active; conditions: treatment time: 24 h
// no unit, no text: just the number

The following compounds have reported results that may help.
COMPOUND	EXPERIMENTAL TARGET	phenotypically active
CN(C)CCCN1c2ccccc2Sc2ccc(C(F)(F)F)cc21 [triflupromazine]	HepG2-ACTB-RAB5A	1
NC(=O)c1cccc(-c2cc(Nc3ccc(OC(F)(F)F)cc3)ncn2)c1	HepG2-ACTB-RAB5A	0
CC1(C)CC(=O)C2=C(C1)NC(=S)NC2c1cccc(O)c1 (stereo not given) [Dimethylenastron]	HepG2-ACTB-RAB5A	1
C[C@H](NC(=O)c1sccc1OCc1ccc(Cl)cc1)c1ccccc1	HepG2-ACTB-RAB5A	0
N[C@@H](CSC(c1ccccc1)(c1ccccc1)c1ccccc1)C(=O)O [S-Trityl-L-cysteine]	HepG2-ACTB-RAB5A	0
CCOc1cc(N2CCC(O)CC2)ccc1Nc1ncc2c(n1)N(C)c1ccccc1C(=O)N2C	HepG2-ACTB-RAB5A	1
CCc1cncnc1N1CCN(Cc2nc3cc(C(F)(F)F)ccc3[nH]2)CC1	HepG2-ACTB-RAB5A	1
CCc1nc(-c2cccc(C)c2)c(-c2ccnc(NC(=O)c3ccccc3)c2)s1	HepG2-ACTB-RAB5A	1

[in] Return reported phenotypically active; argument: "Nc1nnc(Sc2ncc([N+](=O)[O-])s2)s1"
[out] 0

[in] What about this compound? O=c1ncccn1[C@@H]1O[C@H](CO)[C@@H](O)[C@H]1O [Zebularine]
[out] 0

[in] Now this one: "O=C1NC(=O)C(c2ccccc2[N+](=O)[O-])=C1Nc1ccc(O)c(Cl)c1"
[out] 1

[in] Also, CCOC(=O)[C@H](CCc1ccccc1)N[C@@H](C)C(=O)N1Cc2ccccc2C[C@H]1C(=O)O [quinapril] please.
[out] 0

[in] Thanks! And "O=C(CCCc1ccc(-c2ccccc2F)cc1)Nc1ccc(O)cc1" ?
[out] 1

* * *

test system: A549-TUBA1B-RELA; assay: phenotypically active (imaging signature differs from DMSO and reproducible) at any of 0.3-9 uM (binary (1 = active, 0 = inactive)); higher = active; conditions: treatment time: 24 h
Response enum: active, inactive

Field: example entries. Status: answers known.
COMPOUND	CLASS ASSIGNMENT
CCOCCn1c(N2CCCN(C)CC2)nc2ccccc21	inactive
O=c1c(O)c(-c2ccc(O)c(O)c2)oc2cc(O)cc(O)c12	inactive
CN1[C@@H]2CC[C@H]1C[C@@H](OC(c1ccccc1)c1ccccc1)C2	active
O=S(=O)(c1cccc2cnccc12)N1CCNCC1	active

[in] Fill in: this test's call for "Cc1ncc(-c2ccnc(Nc3ccc(S(C)(=O)=O)cc3)n2)n1C(C)C" is ___
[out] active

[in] What about this compound? "CCN(c1ccccc1)c1cc(NC)[n+](C)c(C)n1"
[out] inactive

[in] Now try "COc1ccc(-n2c(SCCCN3C(=O)c4cccc5cccc(c45)C3=O)nnc2-c2ccncc2)cc1" .
[out] active

[in] Queued: "CN1CCN(c2ccc(-c3cccc(CN4CCOCC4)c3)cc2NC(=O)c2c[nH]c(=O)cc2C(F)(F)F)CC1"
[out] active

[in] Cool, now CC(C)[C@H](N)C(=O)OCC(CO)OCn1cnc2c(=O)[nH]c(N)nc21 (stereo not given in full)
[out] inactive

[in] Let us now turn to COc1ccnc(CS(=O)c2nc3cc(OC(F)F)ccc3[nH]2)c1OC (stereo not given)
[out] inactive

* * *

test system: A549-GM130-SQSTM1; experiment: lowest phenotypically active concentration; higher = less potent; conditions: treatment time: 24 h
Counter-ions that a name gives are not always drawn.
ENDPOINT: lowest phenotypically active concentration (µM)
Number in µM, nothing else.

COMPOUND	UNIT OF MEASUREMENT	QUANTITATIVE READOUT
Nc1cccc(-c2cc3c(Oc4cccc(O)c4)ncnc3[nH]2)c1	µM	9
Cc1ccc2nc(NCCN)c3ncc(C)n3c2c1	µM	3
CCOC(=O)CCNc1cc(N2CCc3ccccc3CC2)nc(-c2ccccn2)n1	µM	9
CN(C)CC(=O)Nc1ccc2[nH]c(=O)c3ccccc3c2c1 [PJ 34 hydrochloride]	µM	9
O=C(CCCN1CCC(O)(c2ccc(Cl)cc2)CC1)c1ccc(F)cc1	µM	9
Cc1ccc(NC2=CC(=O)c3sc(C)nc3C2=O)cc1	µM	9
CN1CCC(=C2c3ccccc3CC(=O)c3sccc32)CC1	µM	9
N#Cc1ccc2ncnc(NCCc3ccccc3)c2c1	µM	3
COc1ccc(-c2cc(=O)c3c(O)cc(O)cc3o2)cc1O	µM	9
COc1cc2ncnc(Nc3ccc(O)c(Br)c3)c2cc1OC	µM	3

[in] # query: lowest phenotypically active concentration of entry "c1cc(-c2cc(C3CCNCC3)[nH]n2)ccn1"
[out] 3

[in] Further, for CN1CCCC(n2nc(Cc3ccc(Cl)cc3)c3ccccc3c2=O)CC1 (stereo not drawn) ?
[out] 9

[in] Now consider "CCc1cc(-c2n[nH]c(C)c2-c2ccc3c(c2)OCCO3)c(O)cc1O" and answer again.
[out] 3

* * *

system: WPMY1-CANX-COX4; assay: lowest phenotypically active concentration; higher = less potent; settings: treatment time: 24 h
Where a name gives a salt, the structure may show the parent alone.
compounds and their reported lowest phenotypically active concentration
State the answer as a number, implicitly in µM.

# example entries with known answers
COMPOUND	EXPERIMENTAL TARGET	QUANTITATIVE READOUT
COc1ccc(S(=O)(=O)N(C(C)=O)c2ccccc2/C=C/c2cc[n+]([O-])cc2)cc1	WPMY1-CANX-COX4	3
COc1cc(N2CCC(N3CCN(C)CC3)CC2)ccc1Nc1ncnc(Nc2ccccc2S(=O)(=O)C(C)C)n1	WPMY1-CANX-COX4	3
Nc1ncn([C@@H]2O[C@H](CO)[C@@H](O)[C@H]2O)c(=O)n1 [5-Azacytidine]	WPMY1-CANX-COX4	3
Nc1nc(S)c2[nH]cnc2n1 [thioguanine]	WPMY1-CANX-COX4	1
CCN(CCO)CCCC(C)Nc1ccnc2cc(Cl)ccc12 (centres undefined) [hydroxychloroquine]	WPMY1-CANX-COX4	9

[in] Which lowest phenotypically active concentration is listed for CN1c2ccccc2C(=O)N2CCc3c([nH]c4ccccc34)[C@H]21 [Evodiamine] ?
[out] 1

[in] Then what about the compound "Fc1ccccc1Nc1nc2nonc2nc1Nc1ccccc1F" ?
[out] 9

[in] How about this compound: CN[C@H]1CC[C@@H](c2ccc(Cl)c(Cl)c2)c2ccccc21 [sertraline]
[out] 3

[in] Query S=c1[nH]cnc2nc[nH]c12 [mercaptopurine] next
[out] 9

[in] Repeat with "Cc1ccc(S(=O)(=O)c2ccc([N+](=O)[O-])o2)cc1"
[out] 9

[in] Thanks! And CCCCCCCCCCCCC/C=C/[C@@H](O)[C@H](CO)N(C)C [N,N-Dimethylsphingosine] ?
[out] 3

[in] And "CCCCCCCCCCNCCSSCc1ccc(Cl)cc1" ?
[out] 3

[in] Then COCC(=O)O[C@]1(CCN(C)CCCc2nc3ccccc3[nH]2)CCc2cc(F)ccc2[C@@H]1C(C)C [mibefradil] ?
[out] 9

[in] What would you report for COc1cc(O)cc(O)c1C(=O)/C=C/c1ccccc1 [Cardamonin] ?
[out] 9

[in] Quick one: CC(C)(C)c1nc(-c2cccc(NS(=O)(=O)c3c(F)cccc3F)c2F)c(-c2ccnc(N)n2)s1 [dabrafenib]
[out] 1

[in] Try O=C(CCCCCN1C(=O)c2cccc3cccc(c23)C1=O)NO [Scriptaid] next.
[out] 1

[in] Field entry: CCCC1(CCC)CCC2(CCN(CCCN(CC)CC)C2)CC1 [Atiprimod dihydrochloride]
[out] 1

[in] Query "c1ccc(-c2n[nH]cc2-c2ccnc3ccccc23)nc1" next
[out] 9
